B1: library; a variant is named by its letters at N, in order (parent)
chain: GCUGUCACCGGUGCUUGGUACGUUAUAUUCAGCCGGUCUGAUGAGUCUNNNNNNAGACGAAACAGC

variants of: B1; experiment: normalized RNA/DNA level with ligand (relative to sTRSVctl = 100) (log10 (% of sTRSVctl)); HEK293T overexpressing SLC46A1; ligand concentration (+) RNA-Seq: 6 mM; higher = less ribozyme self-cleavage, higher mRNA level; settings: with (6R,S)-folinic acid; ligand present: yes
reported.metric: normalized RNA/DNA level with ligand (log10)

Retrieve normalized RNA/DNA level with ligand (log10) measured for AGGGGG and print it.
2.05

Return reported normalized RNA/DNA level with ligand (log10) values for all items listed beneath this line.
1. GUCGGA
2. UGGUUC
3. UGAAGA
4. CAUCAA

1: 2.02; 2: 2.01; 3: 1.98; 4: 1.97

Your task in this section: give normalized RNA/DNA level with ligand (log10) for each listed record.
1. CAGGGG
2. CACGGA
3. CAAUUC

1. 2
2. 2.02
3. 2

For every listed record, write down its normalized RNA/DNA level with ligand (log10).
1. GCACGG
2. AGCGUG
3. UACCUA
4. AUACCA

1: 2.01; 2: 2.02; 3: 2.07; 4: 2.01

// batch mode: one normalized RNA/DNA level with ligand (log10) value per listed entry
1. AUCGUA
2. ACCAGG

1. 1.99
2. 2

For every item in the list below, what is its measured normalized RNA/DNA level with ligand (log10)?
1. AUAAAC
2. AGUCGG

[1.99, 2]

Each of the following entries comes with a recorded value; kindly state normalized RNA/DNA level with ligand (log10) for each.
1. CGCACC
2. UCCAUC
3. UGUAUA
4. ACACUC
5. UCUGGA
6. CAACUU

1: 2.07; 2: 2.01; 3: 2.01; 4: 2.03; 5: 2.05; 6: 2.03

Hi team, please reply with normalized RNA/DNA level with ligand (log10) for each item in this list.
1. ACGAAU
2. GCUGGG

2
2.01

Items follow; give normalized RNA/DNA level with ligand (log10) for each.
1. GGUGGG
2. ACGGAA

[2.06, 2.02]
